# credit: patent US9962369B2

- TEST METHOD NOTES: Transdermal delivery of melatonin: plasma level of melatonin after applying composition to skin of a subject
- CONDITION LABEL: human, plasma, topical, Plasma level of melatonin, 2-(Diethylamino)ethyl 2-acetoxybenzoate hydrochloride 221.69 mM, 0.375 mL applied to skin, 4 hr after transdermal administration
MEASURED ENDPOINT: concentration at 4 h

[[record]]
substance_smiles = "COc1ccc2[nH]cc(CCNC(C)=O)c2c1"
reading = "2.7 ng/mL"


* * *

- TEST METHOD NOTES: Transdermal delivery of melatonin: plasma level of melatonin after applying composition to skin of a subject
- CONDITION LABEL: human, plasma, topical, 3 mg, Plasma level of melatonin, Tyrosine pentyl ester 243.25 mM, 0.30 mL applied to skin, 4 hr after transdermal administration
MEASURED ENDPOINT: concentration at 4 hr (ng/mL)

[[record]]
substance_smiles = "COc1ccc2[nH]cc(CCNC(C)=O)c2c1"
measured_endpoint = "concentration at 4 hr"
unit_abbrev = "ng/mL"
reading = 2.2


* * *

- Tested on: human skin tissue
- TEST METHOD NOTES: Penetration rate of AI compound in AI-helper composition through human skin in vitro, modified Franz cells
- Format: in vitro ADME
- CONDITION LABEL: Phenylalanine ester: None, Al compound 0.5% w/v, 25 °C
MEASURED ENDPOINT: Skin penetration rate of Al compound

[[record]]
molecule = "N[C@@H](CCC(=O)N[C@@H](CS)C(=O)NCC(=O)O)C(=O)O [Glutathione]"
system_tested = "human skin tissue"
reading = "0.016 ± 0.009 μg/cm^2/h"

[[record]]
molecule = "O=C(O)CCCCC1CCSS1 (stereo not drawn) [Alpha-lipoic acid]"
system_tested = "human skin tissue"
reading = "0.058 ± 0.047 μg/cm^2/h"

[[record]]
molecule = "CC1=C(/C=C/C(C)=C/C=C/C(C)=C/C=C/C=C(C)/C=C/C=C(C)/C=C/C2=C(C)CCCC2(C)C)C(C)(C)CCC1 [Beta Carotene]"
system_tested = "human skin tissue"
reading = "0.019 ± 0.008 μg/cm^2/h"

[[record]]
molecule = "Nc1nc2ncc(CNc3ccc(C(=O)N[C@@H](CCC(=O)O)C(=O)O)cc3)nc2c(=O)[nH]1 [Folic acid]"
system_tested = "human skin tissue"
reading = "0.012 ± 0.007 μg/cm^2/h"

[[record]]
molecule = "Oc1ccc(C=Cc2cc(O)cc(O)c2)cc1 [Resveratrol]"
system_tested = "human skin tissue"
reading = "0.015 ± 0.011 μg/cm^2/h"

[[record]]
molecule = "O=C1O[C@H]([C@@H](O)CO)C(O)=C1O [Vitamin C]"
system_tested = "human skin tissue"
reading = "0.017 ± 0.015 μg/cm^2/h"

[[record]]
molecule = "NCCS(=O)(=O)O [Taurine]"
system_tested = "human skin tissue"
reading = "0.011 ± 0.006 μg/cm^2/h"

[[record]]
molecule = "CC1=C(/C=C/C(C)=C/C=C/C(C)=C/C=C/C=C(C)/C=C/C=C(C)/C=C/C2=C(C)C(=O)[C@@H](O)CC2(C)C)C(C)(C)C[C@H](O)C1=O [Astaxanthin]"
system_tested = "human skin tissue"
reading = "0.019 ± 0.011 μg/cm^2/h"

[[record]]
molecule = "Cc1ncc(CO)c(CO)c1O.Cl [Vitamin B6]"
system_tested = "human skin tissue"
reading = "0.057 ± 0.011 μg/cm^2/h"

